Data origin, for the record: patent US20020137929A1

Catalogue of TRZAWR herbicidal rating values
System: TRZAWR (Wheat, Winter, cv Riband)
MEASUREMENT_DESCRIPTION: Postemergence herbicidal evaluation
Assay type: in vivo, Triticum aestivum
EXPERIMENTAL_SETUP: postemergence, rate 0.0158 kg/ha
Just the number.

Answered cases to consult:
1) COC(=O)[C@H](Cc1ccccc1)N1C(=O)CS/C1=N/c1cc(-n2c(=O)cc(C(F)(F)F)n(C)c2=O)c(F)cc1Cl :: 3.5
2) C=CCN1C(=O)C(CC(=O)OC(C)C)SC1=Nc1cc(-n2c(=O)cc(C(F)(F)F)n(C)c2=O)c(F)cc1Cl (centres unmarked) :: 3.5
3) COC(=O)C1(N2C(=O)CSC2=Nc2cc(-n3c(=O)cc(C(F)(F)F)n(C)c3=O)c(F)cc2Cl)CCCCC1 :: 4.5
4) Cn1c(C(F)(F)F)cc(=O)n(-c2cc(N=C3SCC(=O)N3[C@H](Cc3ccccc3)C(=O)O)c(Cl)cc2F)c1=O :: 3.0

Shift focus to the following entry.
# molecule `COC(=O)[C@H](Cc1ccc([N+](=O)[O-])cc1)N1C(=O)CSC1=Nc1cc(-n2c(=O)cc(C(F)(F)F)n(C)c2=O)c(F)cc1Cl` ; its TRZAWR herbicidal rating = 3.0
